- ASSAY_NOTES: Plasma protein binding, mouse
- Type: in vitro ADME
- PROTOCOL_CONDITIONS: read-out: PPB fu, mouse
MEASUREMENT_LABEL: fraction unbound at 5 h, 5 µM
Answer as a number with no unit attached.

Note to self: fraction unbound at 5 h, 5 µM recorded for CN1CCC(Nc2ccnc3ccc(-c4ccc(C(F)(F)F)nc4)nc23)CC1 was 0.3

Note to self: fraction unbound at 5 h, 5 µM recorded for N[C@H]1CCN(c2ccnc3ccc(-c4ccc(C(F)(F)F)nc4)nc23)C1 was 0.08

###

- ASSAY_NOTES: Solubility, miniaturized shake flask method
- PROTOCOL_CONDITIONS: aqueous solution
Assignment: determine reported solubility at 20 h for the given molecules.

Note to self: solubility at 20 h recorded for NC1CCN(c2ccnc3ccc(-c4ccc(C(F)(F)F)nc4)nc23)CC1 was 160 µM

Note to self: solubility at 20 h recorded for CS(=O)(=O)c1cccc(-c2ccc3nccc(N4CC[C@@H](N)C4)c3n2)c1 was 200 µM

Note to self: solubility at 20 h recorded for N[C@H]1CCN(c2ccnc3ccc(-c4ccc(C(F)(F)F)nc4)nc23)C1 was 200 µM

Note to self: solubility at 20 h recorded for CC1CNCCC1Nc1ccnc2ccc(-c3ccc(C(F)(F)F)nc3)nc12 (stereo not drawn) was 195 µM

Note to self: solubility at 20 h recorded for CN1CCC(Nc2ccnc3ccc(-c4cccnc4)nc23)CC1 was 195 µM

Note to self: solubility at 20 h recorded for CN1CCC(Nc2ccnc3ccc(-c4ccc(C(F)(F)F)nc4)nc23)CC1 was 160 µM

Note to self: solubility at 20 h recorded for FC(F)(F)c1ccc(-c2ccc3nccc(N[C@@H]4CCNC4)c3n2)cn1 was 200 µM

Note to self: solubility at 20 h recorded for CN1CCC(Nc2cc(=O)[nH]c3ccc(-c4ccc(C(F)(F)F)nc4)nc23)CC1 was 45 µM

Note to self: solubility at 20 h recorded for CN1CCC(Nc2ccnc3ccc(-c4ccc(C#N)nc4)nc23)CC1 was 200 µM

###

- TARGET: cytochrome P450 2D6 (Homo sapiens, UniProt P10635)
- Sequence (P10635 whole entry): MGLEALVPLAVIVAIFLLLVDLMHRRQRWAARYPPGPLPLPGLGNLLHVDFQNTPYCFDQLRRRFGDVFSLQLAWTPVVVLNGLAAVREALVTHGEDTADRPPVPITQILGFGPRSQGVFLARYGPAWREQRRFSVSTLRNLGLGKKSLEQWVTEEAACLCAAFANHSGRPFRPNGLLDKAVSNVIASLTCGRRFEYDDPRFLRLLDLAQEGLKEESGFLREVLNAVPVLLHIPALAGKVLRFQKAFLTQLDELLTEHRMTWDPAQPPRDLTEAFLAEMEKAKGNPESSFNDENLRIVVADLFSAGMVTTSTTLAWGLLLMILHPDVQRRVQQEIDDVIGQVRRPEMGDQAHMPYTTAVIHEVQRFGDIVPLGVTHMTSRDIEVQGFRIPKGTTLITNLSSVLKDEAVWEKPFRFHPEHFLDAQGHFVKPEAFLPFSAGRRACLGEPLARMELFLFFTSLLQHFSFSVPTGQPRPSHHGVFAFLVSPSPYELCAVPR
- ASSAY_NOTES: Cytochrome P450 inhibition, 2D6
- Type: in vitro ADME
pIC50: −log10 of the molar value.
MEASUREMENT_LABEL: pIC50

Note to self: pIC50 recorded for N[C@H]1CCN(c2ccnc3ccc(-c4ccc(C(F)(F)F)nc4)nc23)C1 was < 4.70

###

- TARGET: HuMAP4K4 (Homo sapiens, UniProt O95819)
- Sequence (O95819 whole entry): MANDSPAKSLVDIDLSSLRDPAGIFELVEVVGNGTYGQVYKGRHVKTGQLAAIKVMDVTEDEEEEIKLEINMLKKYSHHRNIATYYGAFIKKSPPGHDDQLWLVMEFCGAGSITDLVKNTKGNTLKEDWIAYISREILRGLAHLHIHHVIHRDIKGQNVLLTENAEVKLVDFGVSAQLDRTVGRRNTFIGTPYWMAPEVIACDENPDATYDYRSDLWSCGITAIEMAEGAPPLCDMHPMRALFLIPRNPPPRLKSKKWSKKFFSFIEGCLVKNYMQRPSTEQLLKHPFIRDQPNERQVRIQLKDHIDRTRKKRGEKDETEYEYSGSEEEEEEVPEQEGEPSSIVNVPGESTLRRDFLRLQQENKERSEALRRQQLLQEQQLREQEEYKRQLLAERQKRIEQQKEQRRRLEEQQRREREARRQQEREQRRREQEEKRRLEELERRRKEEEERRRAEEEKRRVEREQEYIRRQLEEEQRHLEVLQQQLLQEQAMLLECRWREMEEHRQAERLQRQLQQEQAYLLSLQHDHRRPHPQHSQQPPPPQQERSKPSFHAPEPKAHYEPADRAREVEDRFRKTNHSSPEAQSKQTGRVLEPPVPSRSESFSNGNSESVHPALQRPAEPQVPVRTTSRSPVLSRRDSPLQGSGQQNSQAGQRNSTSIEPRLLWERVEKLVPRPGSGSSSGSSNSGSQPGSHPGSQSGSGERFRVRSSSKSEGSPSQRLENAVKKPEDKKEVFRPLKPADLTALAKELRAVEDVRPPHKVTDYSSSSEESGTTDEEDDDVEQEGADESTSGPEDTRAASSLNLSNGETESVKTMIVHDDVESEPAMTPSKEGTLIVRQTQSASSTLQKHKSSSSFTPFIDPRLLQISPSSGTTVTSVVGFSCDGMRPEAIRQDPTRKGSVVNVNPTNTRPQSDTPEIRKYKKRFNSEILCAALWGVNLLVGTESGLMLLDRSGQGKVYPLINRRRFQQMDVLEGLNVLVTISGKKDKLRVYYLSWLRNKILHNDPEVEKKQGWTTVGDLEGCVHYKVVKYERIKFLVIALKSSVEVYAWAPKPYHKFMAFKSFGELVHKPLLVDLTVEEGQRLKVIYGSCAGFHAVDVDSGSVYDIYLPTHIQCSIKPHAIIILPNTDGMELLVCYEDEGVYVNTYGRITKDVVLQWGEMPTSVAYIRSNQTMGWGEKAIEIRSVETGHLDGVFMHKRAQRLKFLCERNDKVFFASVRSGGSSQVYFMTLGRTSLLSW
MEASUREMENT_LABEL: IC50

Here FC(F)(F)c1ccc(-c2ccc3nccc(N[C@@H]4CCNC4)c3n2)cn1 was tested on HuMAP4K4 (Homo sapiens, UniProt O95819), and its IC50 came to > 10 µM

Here N[C@H]1CCN(c2ccnc3ccc(-c4ccc(C(F)(F)F)nc4)nc23)C1 was tested on HuMAP4K4 (Homo sapiens, UniProt O95819), and its IC50 came to > 10 µM

###

- ASSAY_NOTES: Caco-2 permeability
- Type: in vitro ADME
- PROTOCOL_CONDITIONS: human
MEASUREMENT_LABEL: efflux ratio
Answer as a number with no unit attached.

Note to self: efflux ratio recorded for FC(F)(F)c1ccc(-c2ccc3nccc(N[C@@H]4CCNC4)c3n2)cn1 [Compound 16] was 13

###

- ASSAY_NOTES: pKa of piperidine N
- Type: physicochemical
MEASUREMENT_LABEL: pKa

Note to self: pKa recorded for O[C@H]1CNCC[C@H]1Nc1ccnc2ccc(-c3ccc(C(F)(F)F)nc3)nc12 (relative stereo) was 8.99

###

- Test system: Chinese Hamster Ovary (CHO) cell line
- ASSAY_NOTES: cells
- Format: cell-based
- PROTOCOL_CONDITIONS: Cricetulus griseus, CHO; MTT assay over 48h; read-out: CHO IC50
Entries whose IC50 is below 30 µM take 1 (yes); entries at or above 30 µM take 0 (no).

Quick check: does CC1CNCCC1Nc1ccnc2ccc(-c3ccc(C(F)(F)F)nc3)nc12 (centres unmarked) [Compound 24] have IC50 under 30 µM?
0 (no)

Quick check: does O[C@H]1CNCC[C@H]1Nc1ccnc2ccc(-c3ccc(C(F)(F)F)nc3)nc12 (relative stereo) [Compound 27] have IC50 under 30 µM?
0 (no)

Quick check: does CN1CCC(Nc2ccnc3ccc(-c4cccnc4C(F)(F)F)nc23)CC1 [Compound 30] have IC50 under 30 µM?
0 (no)

Quick check: does N[C@H]1CCN(c2ccnc3ccc(-c4ccc(C(F)(F)F)nc4)nc23)C1 [Compound 14] have IC50 under 30 µM?
1 (yes)

Quick check: does Cc1nc(C(F)(F)F)ccc1-c1ccc2nccc(NC3CCN(C)CC3)c2n1 [Compound 31] have IC50 under 30 µM?
0 (no)

Quick check: does CN1CCC(Nc2cc(N)nc3ccc(-c4ccc(C(F)(F)F)nc4)nc23)CC1 [Compound 36] have IC50 under 30 µM?
1 (yes)

Quick check: does CN1CCC(Nc2ccnc3ccc(-c4cccnc4)nc23)CC1 [Compound 29] have IC50 under 30 µM?
0 (no)

Quick check: does FC(F)(F)c1ccc(-c2ccc3nccc(N[C@H]4CCNC4)c3n2)cn1 [Compound 15] have IC50 under 30 µM?
0 (no)

Quick check: does CN1CCC(Nc2ccnc3ccc(-c4ccc(C#N)nc4)nc23)CC1 [Compound 32] have IC50 under 30 µM?
0 (no)

Quick check: does CN1CCC(Nc2ccnc3ccc(-c4ccc(OCCCO)nc4)nc23)CC1 [Compound 35] have IC50 under 30 µM?
0 (no)

Quick check: does CNC(=O)c1ccc(-c2ccc3nccc(NC4CCN(C)CC4)c3n2)cn1 [Compound 33] have IC50 under 30 µM?
1 (yes)

Quick check: does FC(F)(F)c1ccc(-c2ccc3nccc(NC4CCCNC4)c3n2)cn1 (centres unmarked) [Compound 12] have IC50 under 30 µM?
0 (no)

Quick check: does O[C@H]1CNCC[C@@H]1Nc1ccnc2ccc(-c3ccc(C(F)(F)F)nc3)nc12 (racemic) [Compound 28] have IC50 under 30 µM?
0 (no)

Quick check: does NC1CCN(c2ccnc3ccc(-c4ccc(C(F)(F)F)nc4)nc23)CC1 [Compound 18] have IC50 under 30 µM?
0 (no)

Quick check: does CS(=O)(=O)c1cccc(-c2ccc3nccc(N4CC[C@@H](N)C4)c3n2)c1 [Compound 9] have IC50 under 30 µM?
1 (yes)

Quick check: does CN1CCC(Nc2ccnc3ccc(-c4ccc(C(F)(F)F)nc4)nc23)CC1 [Compound 21] have IC50 under 30 µM?
0 (no)

Quick check: does N[C@@H]1CCN(c2ccnc3ccc(-c4ccc(C(F)(F)F)nc4)nc23)C1 [Compound 13] have IC50 under 30 µM?
1 (yes)

Quick check: does CS(=O)(=O)c1cccc(-c2ccc3nccc(NC4CCCNC4)c3n2)c1 (centres unmarked) [Compound 8] have IC50 under 30 µM?
0 (no)

Quick check: does FC(F)(F)c1ccc(-c2ccc3nccc(N[C@@H]4CCNC4)c3n2)cn1 [Compound 16] have IC50 under 30 µM?
0 (no)

Quick check: does FC(F)(F)c1ccc(-c2ccc3nccc(NCC4CCNCC4)c3n2)cn1 [Compound 20] have IC50 under 30 µM?
0 (no)

###

- ASSAY_NOTES: physchem
MEASUREMENT_LABEL: solubility
The number alone won't do; follow it with the unit.

Note to self: solubility recorded for FC(F)CN1CCC(Nc2ccnc3ccc(-c4ccc(C(F)(F)F)nc4)nc23)CC1 [Compound 23] was 20 µM

###

Assignment: determine reported log10 of IC50 for the given compounds.
- System: P. falciparum NF54 strain
- ASSAY_NOTES: Antiplasmodial activity, parasite lactate dehydrogenase assay, NF54
- Assay type: cell-based, Plasmodium falciparum
- PROTOCOL_CONDITIONS: Plasmodium falciparum, NF54, 72 h, parasite lactate dehydrogenase assay over 72 h; read-out: Pf IC50 ± SD NF54
// stored as log10 of IC50 expressed in nM

Note to self: log10 of IC50 recorded for FC(F)(F)c1ccc(-c2ccc3nccc(N[C@@H]4CCNC4)c3n2)cn1 was 1.93

Note to self: log10 of IC50 recorded for O[C@H]1CNCC[C@@H]1Nc1ccnc2ccc(-c3ccc(C(F)(F)F)nc3)nc12 (racemic) was 2.23

Note to self: log10 of IC50 recorded for Cc1nc(C(F)(F)F)ccc1-c1ccc2nccc(NC3CCN(C)CC3)c2n1 was 2.70

Note to self: log10 of IC50 recorded for CS(=O)(=O)c1cccc(-c2ccc3nccc(N4CC[C@@H](N)C4)c3n2)c1 was 2.00

Note to self: log10 of IC50 recorded for CN1CCC(Nc2ccnc3ccc(-c4cccnc4C(F)(F)F)nc23)CC1 was 2.43

Note to self: log10 of IC50 recorded for NC1CCN(c2ccnc3ccc(-c4ccc(C(F)(F)F)nc4)nc23)CC1 was 2.62

Note to self: log10 of IC50 recorded for N[C@@H]1CCN(c2ccnc3ccc(-c4ccc(C(F)(F)F)nc4)nc23)C1 was 1.78

Note to self: log10 of IC50 recorded for FC(F)(F)c1ccc(-c2ccc3nccc(OC4CCNCC4)c3n2)cn1 was 3.59
